target desc: Phosphatidylinositol 4,5-bisphosphate 3-kinase catalytic subunit gamma isoform (Homo sapiens)
Sequence (P48736 whole entry, canonical isoform): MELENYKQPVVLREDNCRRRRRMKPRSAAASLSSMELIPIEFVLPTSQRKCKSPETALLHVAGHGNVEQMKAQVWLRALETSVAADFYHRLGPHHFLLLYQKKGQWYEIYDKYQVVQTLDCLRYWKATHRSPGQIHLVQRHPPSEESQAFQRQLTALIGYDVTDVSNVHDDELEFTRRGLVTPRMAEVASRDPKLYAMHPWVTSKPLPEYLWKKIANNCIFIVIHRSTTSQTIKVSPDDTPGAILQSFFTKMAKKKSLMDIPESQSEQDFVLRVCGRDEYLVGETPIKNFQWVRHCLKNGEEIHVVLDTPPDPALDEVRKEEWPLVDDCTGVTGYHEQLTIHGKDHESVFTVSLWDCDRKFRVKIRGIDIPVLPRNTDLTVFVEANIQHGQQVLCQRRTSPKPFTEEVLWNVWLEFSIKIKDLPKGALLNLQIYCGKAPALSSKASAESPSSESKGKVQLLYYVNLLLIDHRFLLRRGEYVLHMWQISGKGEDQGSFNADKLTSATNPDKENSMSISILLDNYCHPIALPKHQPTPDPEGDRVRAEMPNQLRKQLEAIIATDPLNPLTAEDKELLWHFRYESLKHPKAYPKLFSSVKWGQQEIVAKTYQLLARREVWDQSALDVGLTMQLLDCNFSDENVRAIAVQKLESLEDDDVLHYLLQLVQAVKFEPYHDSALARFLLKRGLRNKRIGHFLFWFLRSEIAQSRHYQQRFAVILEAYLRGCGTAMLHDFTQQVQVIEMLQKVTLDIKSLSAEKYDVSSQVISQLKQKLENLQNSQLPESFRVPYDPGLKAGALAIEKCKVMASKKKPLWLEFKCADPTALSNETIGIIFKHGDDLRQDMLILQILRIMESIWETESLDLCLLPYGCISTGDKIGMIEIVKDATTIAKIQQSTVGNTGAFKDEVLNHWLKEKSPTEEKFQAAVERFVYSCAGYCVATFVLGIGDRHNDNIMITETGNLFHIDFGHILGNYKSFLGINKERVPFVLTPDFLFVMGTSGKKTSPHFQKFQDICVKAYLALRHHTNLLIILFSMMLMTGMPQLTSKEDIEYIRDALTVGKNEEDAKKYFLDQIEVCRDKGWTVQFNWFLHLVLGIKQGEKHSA
measurement protocol: Inhibition of recombinant PI3Kgamma (unknown origin) using PIP2:3PS as substrate preincubated for 20 mins followed by ATP addition and measured after 1 hrs by ADP-Glo reagent based assay
Documented pIC50 across a set of compounds
The meaning of pIC50 here: minus log10 of the concentration in molar units.

                            chemical_smiles  measurement_type  readout_value
0  COc1ncc(-c2ccc3ncnc(N[C@H]4CCN(C(=O)C5CCOCC5)C4)c3n2)cc1C(=O)Oc1ccccc1             pIC50           7.03
1  COc1ncc(-c2ccc3ncnc(N[C@H]4CCN(C(=O)C5CCOCC5)C4)c3c2)cc1C(=O)Oc1ccc(F)cc1             pIC50           6.68
2  COc1ncc(-c2ccc3ncnc(N[C@H]4CCN(C(=O)C5CCOCC5)C4)c3c2)cc1C(=O)Oc1ccccc1             pIC50           6.18

[in] State, in one line, measured pIC50 of COc1ncc(-c2ccc3ncnc(N[C@H]4CCN(C(=O)C5CCOCC5)C4)c3n2)cc1C(=O)Oc1ccc(F)cc1
[out] 7.20
